target.or.system: GABA transporter 3 (Mus musculus)
Sequence (P31649 whole entry): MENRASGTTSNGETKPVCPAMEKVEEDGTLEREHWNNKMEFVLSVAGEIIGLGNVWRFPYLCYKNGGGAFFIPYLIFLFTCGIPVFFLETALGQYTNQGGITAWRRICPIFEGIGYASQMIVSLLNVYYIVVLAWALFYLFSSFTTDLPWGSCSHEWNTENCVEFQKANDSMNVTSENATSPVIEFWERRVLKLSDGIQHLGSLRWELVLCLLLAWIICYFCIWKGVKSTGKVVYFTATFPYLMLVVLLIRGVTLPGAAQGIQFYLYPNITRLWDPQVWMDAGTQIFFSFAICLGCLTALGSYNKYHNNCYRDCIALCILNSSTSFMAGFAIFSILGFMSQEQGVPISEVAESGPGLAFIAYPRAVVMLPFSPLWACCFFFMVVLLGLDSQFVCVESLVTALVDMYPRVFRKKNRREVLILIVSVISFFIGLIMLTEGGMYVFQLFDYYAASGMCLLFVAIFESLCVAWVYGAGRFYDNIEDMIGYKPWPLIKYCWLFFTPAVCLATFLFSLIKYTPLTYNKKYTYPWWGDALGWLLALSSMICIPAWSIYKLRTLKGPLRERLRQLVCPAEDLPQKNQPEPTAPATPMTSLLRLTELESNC
method.notes: Inhibition of mouse mGAT3 expressed in HEK293 cells assessed as inhibition of [3H]GABA uptake after 3 mins incubation by TopCount microplate scintillation counting analysis
Format: cell-based
reported.conditions: read-out: IC50
pIC50: −log10 of the molar value.
endpoint.name: pIC50

1) CCN1CCNC(C(=O)O)C1 (racemic)	< 3.00
2) Cc1ccsc1C(=CCCN1CCN(CCON=C(c2ccccc2)c2ccccc2)CC(C(=O)O)C1)c1sccc1C (stereo not drawn)	< 3.00
3) CN(CCCS(=O)(=O)O)CCON=C(c1ccccc1)c1ccccc1	< 3.00

* * *

target.or.system: GABA transporter 2 (Mus musculus)
Sequence (P31651 whole entry): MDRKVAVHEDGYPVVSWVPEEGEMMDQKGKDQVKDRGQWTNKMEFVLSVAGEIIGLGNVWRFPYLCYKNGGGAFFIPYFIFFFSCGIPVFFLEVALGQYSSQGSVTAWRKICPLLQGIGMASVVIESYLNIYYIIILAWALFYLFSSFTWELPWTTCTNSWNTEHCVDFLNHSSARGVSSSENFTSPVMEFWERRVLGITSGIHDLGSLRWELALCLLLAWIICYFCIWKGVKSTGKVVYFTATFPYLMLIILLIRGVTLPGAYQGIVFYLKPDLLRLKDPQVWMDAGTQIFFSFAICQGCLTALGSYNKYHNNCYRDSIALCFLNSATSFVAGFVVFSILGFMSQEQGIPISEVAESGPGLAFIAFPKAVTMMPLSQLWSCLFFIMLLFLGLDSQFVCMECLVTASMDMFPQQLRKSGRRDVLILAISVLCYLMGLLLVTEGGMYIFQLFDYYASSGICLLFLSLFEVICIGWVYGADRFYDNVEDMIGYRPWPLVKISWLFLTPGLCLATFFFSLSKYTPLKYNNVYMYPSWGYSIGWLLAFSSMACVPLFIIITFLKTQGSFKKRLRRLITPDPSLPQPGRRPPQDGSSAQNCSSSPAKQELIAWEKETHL
method.notes: Inhibition of mouse mGAT2 expressed in HEK293 cells assessed as inhibition of [3H]GABA uptake after 3 mins incubation by TopCount microplate scintillation counting analysis
Format: cell-based
reported.conditions: read-out: IC50
pIC50: −log10 of the molar value.
// reported pIC50 for each item listed
endpoint.name: pIC50

1. CN(CCON=C(c1ccccc1)c1ccccc1)[C@@H]1CCCC[C@@H]1C(=O)O	3.35
2. CN(CCOC(c1ccc(C(F)(F)F)cc1)c1ccc(C(F)(F)F)cc1)[C@H]1CCCC[C@H]1C(=O)O	4.05
3. CN(CCOC(c1ccc(C(F)(F)F)cc1)c1ccc(C(F)(F)F)cc1)[C@@H]1CCCC[C@H]1C(=O)O (racemic)	3.86

* * *

Below, each of the compounds is paired with its reported IC50 value.
target.or.system: Sodium- and chloride-dependent GABA transporter 1 (Mus musculus, UniProt P31648)
method.notes: Inhibition of mouse mGAT1 expressed in HEK293 cells assessed as inhibition of [3H]GABA uptake after 3 mins incubation by TopCount microplate scintillation counting analysis
Assay type: cell-based
reported.conditions: read-out: IC50
endpoint.name: IC50

1) Cc1ccsc1C(=CCCn1cc(CNCCC(=O)O)nn1)c1sccc1C	> 2000 µM
2) CN(CCON=C(c1ccccc1)c1ccccc1)C1CCCC=C1C(=O)O (stereo not drawn)	> 2000 µM
3) CCC(C)N1CCN(CCC=C(c2sccc2C)c2sccc2C)CC(C(=O)O)C1 (stereo not drawn)	> 1000 µM

* * *

In this section we review reported pIC50 values for a set of compounds.
target.or.system: GABA transporter 3 (Mus musculus, UniProt P31649)
method.notes: Inhibition of mouse mGAT3 expressed in HEK293 cells assessed as inhibition of [3H]GABA uptake after 3 mins incubation by TopCount microplate scintillation counting analysis
Format: cell-based
reported.conditions: read-out: IC50
pIC50: −log10 of the molar value.
endpoint.name: pIC50

1. CCC(C)N1CCN(CCC=C(c2sccc2C)c2sccc2C)CC(C(=O)O)C1 (stereo unspecified)	< 3.00
2. Cc1ccsc1C(=CCCN1CCN(C(=N)N)CC(C(=O)O)C1)c1sccc1C (stereo unspecified)	< 3.00
3. Cc1ccsc1C(=CCCN1CCNC(C(=O)O)C1)c1sccc1C (racemic)	< 3.00
4. O=C(O)C1CN(CCOC(c2ccc(C(F)(F)F)cc2)c2ccc(C(F)(F)F)cc2)CCN1 (racemic)	< 3.00
5. CCN1CCN(CCON=C(c2ccccc2)c2ccccc2)CC(C(=O)O)C1 (stereo unspecified)	< 3.00
6. CN(CCON=C(c1ccccc1)c1ccccc1)C1CCCC=C1C(=O)O (stereo unspecified)	< 2.70

* * *

target.or.system: UniProt:P31649
method.notes: Inhibition of mouse mGAT3 expressed in HEK293 cells assessed as inhibition of [3H]GABA uptake after 3 mins incubation by TopCount microplate scintillation counting analysis
Assay type: cell-based
reported.conditions: read-out: IC50
Reported IC50 values are given for each entry in this list.
endpoint.name: IC50

1. CN(CCC=C1c2ccccc2CCc2ccccc21)CCCP(=O)(O)O	> 1000 µM
2. Cc1ccsc1C(=CCCN1CCC[C@@H](C(=O)O)C1)c1sccc1C [TIAGABINE]	> 300 µM
3. Cc1ccsc1C(=CCCn1cc(CNCCC(=O)O)nn1)c1sccc1C	> 2000 µM
4. CN(CCON=C(c1ccccc1)c1ccccc1)[C@H]1CCCC[C@H]1C(=O)O	> 1000 µM
5. O=C(O)CCNCc1cn(CCOC(c2ccc(C(F)(F)F)cc2)c2ccc(C(F)(F)F)cc2)nn1	> 1000 µM
6. CCCCN1CCN(CCON=C(c2ccccc2)c2ccccc2)CC(C(=O)O)C1 (stereo not drawn)	> 1000 µM
7. CN(CCON=C(c1ccccc1)c1ccccc1)[C@@H]1CCCC[C@H]1C(=O)O (racemic)	> 2000 µM
8. CN(CCOC(c1ccc(C(F)(F)F)cc1)c1ccc(C(F)(F)F)cc1)C1CCCC=C1C(=O)O (stereo not drawn)	> 1000 µM
9. Cc1ccsc1C(=CCCN(C)[C@@H]1CCCC[C@@H]1CO)c1sccc1C	133 µM
10. CCN1CCNCC1C(=O)O (racemic)	> 1000 µM
11. O=C(O)C1CN(CCO)CCN(CCON=C(c2ccccc2)c2ccccc2)C1 (stereo not drawn)	> 1000 µM
12. CCOC(=O)[C@H]1CCCC[C@H]1N(C)CCON=C(c1ccccc1)c1ccccc1	1050 µM
13. CN(CCOC(c1ccc(C(F)(F)F)cc1)c1ccc(C(F)(F)F)cc1)[C@@H]1CCCC[C@H]1C(=O)O (racemic)	433 µM

* * *

In this section we review reported pIC50 values for a set of compounds.
target.or.system: Sodium- and chloride-dependent GABA transporter 1 (Mus musculus)
method.notes: Inhibition of mouse mGAT1 expressed in HEK293 cells assessed as inhibition of [3H]GABA uptake after 3 mins incubation by TopCount microplate scintillation counting analysis
Assay type: cell-based
reported.conditions: read-out: IC50
pIC50: −log10 of the molar value.
endpoint.name: pIC50

1. O=C(O)CCNCCC=C1c2ccccc2CCc2ccccc21	3.55
2. Cc1ccsc1C(=CCCN(C)C1CCCC=C1C(=O)O)c1sccc1C (stereo in doubt; (E1)-6a)	3.77
3. CCOC(=O)[C@@H]1CCCC[C@@H]1N(C)CCC=C1c2ccccc2CCc2ccccc21	2.86

* * *

target.or.system: GABA transporter 2 (Mus musculus)
method.notes: Inhibition of mouse mGAT2 expressed in HEK293 cells assessed as inhibition of [3H]GABA uptake after 3 mins incubation by TopCount microplate scintillation counting analysis
Assay type: cell-based
reported.conditions: read-out: IC50
endpoint.name: IC50

1. O=C(O)C1CNCCN(CCON=C(c2ccccc2)c2ccccc2)C1 (stereo not drawn)	> 1000 µM
2. O=C(O)C1CNCCN1CCON=C(c1ccccc1)c1ccccc1 (racemic)	> 1000 µM
3. O=C(O)CCNCc1cn(CCOC(c2ccc(C(F)(F)F)cc2)c2ccc(C(F)(F)F)cc2)nn1	> 1000 µM

Reference for the values: ChEMBL document CHEMBL3399947
